Please go through the items and note down their inhibition.
biological target: Leucine aminopeptidase (Plasmodium falciparum (isolate 3D7)); assay: P. falciparum M17LAP inhibitors, primary screen, biochemical, fluorogenic H-Leu-NHMec substrate, 1536-well (AID 1619); settings: recombinant M17LAP, H-Leu-NHMec fluorogenic kinetic assay; at 30 µM; stronger effect = higher value;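 note: plate controls were full reaction with DMSO carrier for no effect and no enzyme background for full effect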
Screen size: about 220,000 compounds; about 830 (0.38%) were called active. A selection follows. Entries with a potency or affinity are not part of this list.
Provide only the numeric value, understood in %.

Input: If you can, please state the reported inhibition value of CCOC(=O)C/C(C)=N/NC(=O)C1CC1(c1ccccc1)c1ccccc1 (centres undefined) .
Output: -7.82

Input: Lookup Cc1cc(C)c2cc(C(=O)N3CCC(Cc4ccccc4)CC3)[nH]c2c1
Output: -4.41

Input: Lookup C#CCOCCOCCOCCNc1nc(N2CCN(C(=O)C([C@@H](C)CC)n3cc(C(N)CO)nn3)CC2)nc(N2CCN(C(=O)[C@H](CCC(=O)O)n3cc(C(N)CC(C)C)nn3)CC2)n1 (some centres undefined)
Output: 2.95

Input: Lookup Cc1cc(C)c(S(=O)(=O)Nc2c(C)[nH]c(=O)[nH]c2=O)c(C)c1
Output: -3

Input: Lookup CC(NC(=O)C(C)N1C(=O)C2C3CC(C(Br)C3Br)C2C1=O)c1ccccc1 (centres undefined)
Output: 10.6

Input: Lookup COc1ccc(OC)c(N/C=C2/CCCCC2=O)c1
Output: 5.47

Input: Lookup Cc1cc(C=C2C(=O)c3ccccc3C2=O)c(C)n1-c1ccc(C(=O)O)cc1
Output: 18.3

Input: Lookup Cc1cc(C=C2C(=O)c3ccccc3C2=O)c(C)n1-c1ccccc1
Output: -3.81

Input: Lookup O=C(CSc1nnc(CNc2cccc(C(F)(F)F)c2)n1Cc1ccco1)NCc1ccco1
Output: 7.9
